tested on: Escherichia coli; assay: Inhibition of Escherichia coli His-tagged bioA at 1 uM using KAPA as substrate after 20 mins in presence of SAM relative to control
measurement.label: inhibition (%)

Example results:
NNC(=O)CSc1ccccc1Cl : 63
Cc1ccccc1SCC(=O)NN : 81

(1) NNC(=O)CSc1ccccc1[N+](=O)[O-]
(2) NNC(=O)CS
(3) CSCC(=O)NN
Ask | Order the records so the highest inhibition appears first and the lowest last. Reply with the item labels sorted in the order that was asked for.
Reply | 1, 3, 2
